Sourced from patent US20200062863A1

Target: T1, human Factor XIIa-beta (human, UniProt P00748 354-615, limits assumed)
T1 construct: Bought from Enzyme Research Laboratories; also called FXIIa beta; FXIIa-beta
T1 sequence: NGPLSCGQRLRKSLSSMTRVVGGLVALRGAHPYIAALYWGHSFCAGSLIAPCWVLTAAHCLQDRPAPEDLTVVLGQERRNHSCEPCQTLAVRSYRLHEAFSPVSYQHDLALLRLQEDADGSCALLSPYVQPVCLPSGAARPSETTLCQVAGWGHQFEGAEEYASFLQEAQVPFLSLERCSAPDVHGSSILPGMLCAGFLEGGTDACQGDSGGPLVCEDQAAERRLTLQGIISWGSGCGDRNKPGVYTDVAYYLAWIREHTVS
Assay: SPR (Biacore A100), unpurified IgG4 supernatant captured on anti-human IgG, single FXIIa beta concentration (100 nM), 37 C, 1:1 fit; estimated
PARAMETER_MEASURED: Kd (nM)
Field format: number, assumed nM, no unit text.

Item: VR112 (antibody, V domains shown) VH: EVQLLESGGGLVQPGGSLRLSCAASGFTFSKYIMQWVRQAPGKGLEWVSGINVPVQGTVYADSVKGRFTISRDNSKNTLYLQMNSLRAEDTAVYYCARALPRSGYLISPHYYYYALDVWGQGTTVTVSS VL: QSELTQPPSASGTPGQRVTISCSGSSSNIGRNYVYWYQQVPGTAPKLLIYSNNQRPSGVPDRFSGSKSGTSASLVISGLRSEDEADYYCAAWDASLRGVFGGGTKLTVLG | Kd: 1.52

Next:
Please fill in: Kd reported for VR167 (antibody, V domains shown, Libraries were built on germline stop templates, so frameworks may differ) VH: EVQLLESGGGLVQPGGSLRLSCAASGFTFSKYIMQWVRQAPGKGLEWVSGIRPSGGTTVYADSVKGRFTISRDNSKNTLYLQMNSLRAEDTAVYYCARALPRSGYLMKTGYYYYALDVWGQGTTVTVSS VL: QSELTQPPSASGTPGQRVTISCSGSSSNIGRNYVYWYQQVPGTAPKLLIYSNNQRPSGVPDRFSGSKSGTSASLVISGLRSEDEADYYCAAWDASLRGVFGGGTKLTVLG = 5.8
